The values you see were collected from PubChem BioAssay (NCI).

- Tested on: SK-OV-3 ovarian
- TEST DESCRIPTION: NCI tumour cell line growth inhibition, 48 h
Field: TGI. Provide a value for each of the compounds that follow.
Report the figure in µM without appending any unit label.

Recorded TGI (compound C=C1C(=O)OC2CC3(C)CCCC(C)C3=CC12 (stereo not given) ): 56.1

Query O=C(Nc1nc(-c2ccc(Cl)cc2)nc2c1sc(=S)n2-c1ccccc1)C(F)(F)F yields TGI of 8.1

---

- System: SNB-19 CNS
- TEST DESCRIPTION: NCI tumour cell line growth inhibition, 48 h
READOUT LABEL: TGI

TGI for N#CCCN(CCC#N)c1ccc(C(N=Nc2ccc(Cl)cc2)=Nc2ccc(F)cc2)cc1 is > 100 µM

Lab note: measured TGI of Cc1c(C2Cc3ccccc3N2)c2ccccc2n1C (stereo not given) was > 100 µM

Entry O=[N+]([O-])c1cccc2nc3ccccc3c(NCCCN3CCCCC3)c12 , TGI reported as 0.444 µM

Memo: CC(C)(C)NC/C(=C\c1ccccc1)C(=O)c1ccccc1 , reported TGI: 18.4 µM

Record CC1=NN(C(=O)c2ccncc2)C(=O)C1N=Nc1ccc2ccccc2c1 (stereo not given) . Reported TGI: > 100 µM

The reported value for COc1ccc(CNC(=O)[C@H](Cc2ccc(O)cn2)NC(C)=O)cc1 in terms of TGI is > 100 µM

Just so you know, measured TGI for COc1cc(/C=C\c2cc(/C=C\c3ccc(O)c(OC)c3)n(C(=O)CNc3ccc(Cl)cc3)n2)ccc1O came out at 14.1 µM

Input CC1=CC(C)(C)Nc2ccc(CSc3ccccc3)cc21 . Output TGI: > 100 µM

GET /value?item= O=[N+]([O-])c1sc2ccc(Cl)cc2c1Nc1ccc(Cl)cc1 &field=TGI returns > 100 µM

Value of TGI reported for the molecule O=C(CCOS(=O)(=O)CF)N1CCN(C(=O)CCOS(=O)(=O)CF)CC1 is > 100 µM

---

- Tested on: SF-268 CNS
- TEST DESCRIPTION: NCI tumour cell line growth inhibition, 48 h
Where a SMILES comes first, the peptide text is derived from it. [ ]: non-standard residue; d: D form. 2Nal = N[CH](Cc1ccc2ccccc2c1)C(=O)O
Hi there, I'd appreciate the recorded TGI for every entry that follows.

Given item O=[As](O)(O)c1ccc2nc3cc([As](=O)(O)O)ccc3nc2c1 , the value recorded as its TGI is > 100 µM

Per the record, CCc1nc2cc(/C=C/C(=O)NO)ccc2c(=O)n1CCc1ccc(F)cc1 has TGI of 5.98 µM

So, NC(=S)NS(=O)(=O)c1ccc(F)cc1F ? Its TGI was > 100 µM

Lab book: TGI of C=CCn1cnc2c(=O)[nH]c(Nc3ccccc3)nc21 noted as > 100 µM

The molecule CC(=O)ON(C(C)=O)C1C(COC(c2ccccc2)(c2ccccc2)c2ccccc2)OC2OC3(CCCC3)OC21 (centres undefined) showed TGI equal to > 100 µM

For reference, reported TGI for O=C(O)c1nccnc1C(=O)O stands at > 100 µM

Record Cc1ccc(-c2cc(-c3c(C)nn(C)c(=O)c3N)[nH]n2)cc1 , field TGI: > 100 µM

// field: TGI; key: O=C1/C(=C/c2cccs2)NC(=S)N1CN1CCCC(CO)C1 (centres undefined) ; value = > 100 µM

Value of measured TGI for the entry CC1=CC(C)(C)Nc2ccc(CSc3ccccc3)cc21 : > 100 µM

Recorded result, CC(C)C(NC(=O)C(CCCCN)NC(=O)C(Cc1c[nH]c2ccccc12)NC(=O)C(Cc1ccc(O)cc1)NC(=O)C(CS)NC(=O)C(N)Cc1ccc2ccccc2c1)C(=O)NC(CS)C(=O)NC(C(N)=O)C(C)O (centres undefined) (H-[2Nal]CYWKVCT-NH2; configuration not given here) , TGI: > 12.5 µM

Form field TGI, entry CCOC(=O)c1c2cccccc2n2c(=O)cc(C)nc12 : > 100 µM

Measured TGI, COC(=O)C(C(=O)C(=O)Nc1ccc(OC)cc1[N+](=O)[O-])c1nc2cc(C)c(C)cc2[nH]c1=O (centres undefined) : > 100 µM

// TGI lookup, molecule = O=C(CCOS(=O)(=O)CF)N1CCN(C(=O)CCOS(=O)(=O)CF)CC1 , result: > 100 µM

Reported TGI ( Cc1ccc(NC(=O)CC/C(CC(=O)C(C)(C)C)=N\Nc2ccc([N+](=O)[O-])cc2[N+](=O)[O-])cc1C ) = > 100 µM

O=C(O)CCSC(=O)Nc1ccccc1Cl yielded TGI of > 100 µM

Measured TGI, CCOC(=O)N1[C@@H]2CCC[C@@H]2C(=O)[C@@H]2CCC[C@@H]21 : > 100 µM

TGI reading for CN(C)CCNC(=O)c1cccc2ncc(-c3ccccc3)nc12 : 29.4 µM

Briefly, TGI measured for CO[C@@H]1[C@H]2[C@@H](C)c3ccoc3C[C@@H]2[C@@]2(C)CC[C@H](OC(=O)c3ccccc3)[C@](C)(C(=O)O)[C@]2(O)[C@@H]1OC(=O)c1ccccc1 : > 50 µM

Record summary for Nc1ccccc1N=Nc1c(S(=O)(=O)O)cc2cc(S(=O)(=O)O)cc(O)c2c1O : reported TGI = > 100 µM

---

Exercise: for every item that follows, state its recorded log10(TGI).
- System: OVCAR-4 ovarian
- TEST DESCRIPTION: NCI tumour cell line growth inhibition, 48 h
Values below are the log10 of the recorded TGI, with µM as the unit.

With OVCAR-4 ovarian as the test system, CC(C)(C)NC/C(=C\c1ccccc1)C(=O)c1ccccc1 showed log10(TGI) of 1.29

Fill in: OVCAR-4 ovarian log10(TGI) for CC1OC(O[C@H]2CC[C@]3(C=O)[C@H]4CC[C@]5(C)[C@H](C6=CC(=O)OC6)CC[C@]5(O)[C@@H]4C=C[C@]3(O)C2)CC(O)C1O (some centres not stated) = -0.08

Tested on OVCAR-4 ovarian, the item CSc1ccc(C2=NN(C(C)=O)C(c3ccc(F)cc3)C2)cc1 (configuration not stated) showed log10(TGI) equal to 1.57

Form: item O=c1[nH]c(=O)n(C/C=C/CBr)nc1Br ; test system OVCAR-4 ovarian; log10(TGI): 1.36

So the reported log10(TGI) for CCOC(=O)c1[nH]c2nc(SC)nc(Nc3ccccc3Cl)c2c1N , on OVCAR-4 ovarian, turned out to be 1.78

For the compound Cc1cc(NNC(=O)c2ccccc2O)nc(Nc2nc3ccccc3o2)n1 , the measured log10(TGI) on OVCAR-4 ovarian was 0.85

Observed log10(TGI), OVCAR-4 ovarian, CN1CCN(Cc2ccc(NC(=O)c3cncc(C#Cc4cnn5ccccc45)c3)cc2C(F)(F)F)CC1 : 0.47

log10(TGI) of COc1ccc(/C=C2/CCS(=O)(=O)c3ccc(C)cc3C2=O)cc1OC , assay on OVCAR-4 ovarian, is 1.83

---

Exercise: state measured TGI for each of the compounds provided.
- Test system: ACHN renal
- TEST DESCRIPTION: NCI tumour cell line growth inhibition, 48 h
Number in µM, nothing else.

Entry CO[C@@H]1[C@H]2[C@@H](C)c3ccoc3C[C@@H]2[C@@]2(C)CC[C@H](OC(=O)c3ccccc3)[C@](C)(C(=O)O)[C@]2(O)[C@@H]1OC(=O)c1ccccc1 ; TGI = 18.9

Reported TGI ( Oc1cc(CN2COc3ccccc32)c(O)cc1CNC1CCCCC1 ) = 78.5

---

- Test system: OVCAR-4 ovarian
- TEST DESCRIPTION: NCI tumour cell line growth inhibition, 48 h; in the data active = GI50 below about 0.43 µM; inactive = the rest
In this exercise, the only acceptable responses are active, inactive

State the result this test recorded for Cc1cc(NNC(=O)c2ccccc2O)nc(Nc2nc3ccccc3o2)n1 . inactive

How was CC(=O)C1CCC2C3CC=C4CC(SC(=N)N)CCC4(C)C3CCC12C (stereo unspecified) classified in this test? inactive

Please let me know the test result on file for Cc1nnc(-c2ccc(C)c(-c3ccc(C(=O)NCc4ccc(Cl)cc4)cc3)c2)o1 . inactive

Hi, sorry to bother you, what did the test record for O=C(O)Cn1c2c(c3c(O)cccc31)C(=O)c1ccccc1-2 ? inactive

Please indicate how the test categorized CCOC(=O)c1csc(NC(=O)COc2cccc(/C=C3\CSc4ccccc4C3=O)c2)n1 . inactive

Please share the test call associated with O=C(NNC(=S)Nc1ccccc1)c1ccccn1 . inactive

How did this test come out for O=C(Nc1cccnc1)c1ccc2ccc3ccc(C(=O)Nc4cccnc4)nc3c2n1 ? active

So what was the verdict on O=C(Nc1nc(-c2ccc(Cl)cc2)nc2c1sc(=S)n2-c1ccccc1)C(F)(F)F in this test? inactive

Query: recorded result category for O=C(Cn1c(C(=O)c2ccccc2)nc2ccccc21)c1ccc(F)cc1 in this test inactive

Fill in: this test's call for CC[C@@H](C)Nc1cc(C(=O)NC2CC3CCC(C2)N3c2ccc(C(=O)C3CC3)cn2)c(C)cc1C(N)=O (stereo partly specified) is ___ inactive

Could you check what this test reported for C/C=C(/C)C(=O)OC1C=C(CO)C(=O)C(OC(=O)C(C)(O)C(C)Cl)C1C(C)C (stereo unspecified) ? inactive
